Test system: FGF receptor 1 (bFGF induced ERK phosphorylation in HUVEC)
experiment: AlphaScreen SureFire Detection of ERK phosphorylation (Thr202/Tyr204) in HUVEC
particulars: Homo sapiens, read-out: IC50 b-FGF induced ERK phosphorylation (Thr202/Tyr204)
measuredAttribute: IC50 (nM)
Express the result in nM but write the number alone.

What value of measured IC50 is listed for C[C@@H](Oc1ccc2[nH]nc(/C=C/c3cnn(CCO)c3)c2c1)c1c(Cl)cncc1Cl [Preparation 10] ?
0.6
